Please respond with reported koff for every item in the list.
- TGT: T1, …-biotin (C-terminal biotin)
- T1 construct: also called DAKD-b; DAKD-biotin
- EXPERIMENTAL PROTOCOL: Biacore, biotin-peptide on SA chip;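 also: purified antibodies injected as twofold dilutions from 0.1 to 10 nM in HBS-EP over streptavidin-captured biotinylated BKR1 or BKR2 ligand peptides, with a random-peptide flow cell as reference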

So what does the record say about koff for humanized F151 variant HC2c/LC2b (antibody, human IgG1, V domains shown, also called LC2bxHC2c) VH: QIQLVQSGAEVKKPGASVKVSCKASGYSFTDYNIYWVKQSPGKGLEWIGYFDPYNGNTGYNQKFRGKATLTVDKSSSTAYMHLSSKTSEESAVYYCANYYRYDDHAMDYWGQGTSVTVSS VL: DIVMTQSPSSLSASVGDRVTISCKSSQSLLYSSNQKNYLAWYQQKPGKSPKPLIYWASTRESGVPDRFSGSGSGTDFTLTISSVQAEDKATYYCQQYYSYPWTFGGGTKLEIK ?
4.34e-05 s⁻¹

So what does the record say about koff for humanized F151 variant HC1/LC1 (antibody, V domains shown, also called LC1xHC1) VH: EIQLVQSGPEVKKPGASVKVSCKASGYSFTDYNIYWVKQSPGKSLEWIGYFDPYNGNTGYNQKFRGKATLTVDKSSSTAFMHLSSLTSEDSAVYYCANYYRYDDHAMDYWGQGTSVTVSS VL: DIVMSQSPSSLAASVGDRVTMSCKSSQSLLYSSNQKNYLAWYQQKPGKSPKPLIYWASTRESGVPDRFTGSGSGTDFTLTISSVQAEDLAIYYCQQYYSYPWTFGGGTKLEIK ?
6e-06 s⁻¹

So what does the record say about koff for humanized F151 variant HC2b/LC2a (antibody, human IgG1, V domains shown, also called LC2axHC2b) VH: QIQLVQSGAEVKKPGASVKVSCKASGYSFTDYNIYWVKQSPGKGLEWIGYFDPYNGNTGYNEKFRGKATLTVDKSSSTAYMHLSSLTSEESAVYYCANYYRYDDHAMDYWGQGTSVTVSS VL: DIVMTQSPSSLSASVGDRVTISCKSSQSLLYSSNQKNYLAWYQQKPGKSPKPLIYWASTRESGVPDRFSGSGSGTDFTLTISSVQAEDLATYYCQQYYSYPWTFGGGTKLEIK ?
1.05e-05 s⁻¹

So what does the record say about koff for humanized F151 variant HC2a/LC2a (antibody, human IgG1, V domains shown, also called LC2axHC2a) VH: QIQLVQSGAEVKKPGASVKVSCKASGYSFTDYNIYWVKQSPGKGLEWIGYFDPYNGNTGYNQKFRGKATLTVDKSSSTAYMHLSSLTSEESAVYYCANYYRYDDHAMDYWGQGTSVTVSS VL: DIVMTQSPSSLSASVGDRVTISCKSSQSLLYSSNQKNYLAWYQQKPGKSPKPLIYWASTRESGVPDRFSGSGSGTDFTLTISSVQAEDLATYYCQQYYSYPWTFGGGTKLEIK ?
1.22e-05 s⁻¹
